From: PubChem BioAssay (NCATS)

# Experimental Details: HPAF-II Cancer Cell Toxicity qHTS against the NCATS CANVASS Library (AID 1347346); note: nearly all actives have a fitted effect of over 55% in size
# Measurement Setup: HPAF-II viability, CellTiter-Glo ATP luminescence, 72 h; series mostly up to 38.3 µM
Records with an inconclusive call do not appear. Calls of active or inactive are those of the source. Calls come from the whole dose curve; as a rule, active = well fitted cell-killing curve with a large enough effect; inconclusive = small, poorly fitted or top-dose-only effect; inactive = flat fitted curve, though single readings scatter.
Give one outcome, nothing more. List: active, inactive

# count of solved cases: 6
| Compound | Class Label |
| --- | --- |
| C[C@@H]1C(=O)[C@]23CC[C@H]1C[C@]21O[C@H]2C(C)(C)C=CC(=O)[C@]23COC1=O | inactive |
| CO[C@@H]1[C@H](O)[C@@H](C)O[C@@H](OC[C@@H]2C(C)OC(=O)/C=C/[C@H](C)C(O[C@@H]3O[C@H](C)CC4(OC(=O)O[C@@H]4C)C3O)[C@@H](C)CC(C)C(=O)CC[C@H]3OC23)[C@@H]1OC (stereo partly specified) | inactive |
| O=C1CC(c2cc(O)cc(O)c2)Oc2cc(O)ccc21 (stereo unspecified) | inactive |
| Cc1cc(O)cc2oc(C[C@H](C)O)cc(=O)c12 | inactive |
| C=C(C)[C@@H]1CC[C@]2(C)CC[C@]3(C)[C@H](CC[C@@H]4[C@@]5(C)CC[C@H](O)C(C)(C)[C@@H]5CC[C@]43C)[C@@H]12 | inactive |
| CC(=O)[C@@H]1[C@@H](O)C[C@H]2[C@]3(C)CC[C@H]4C(C)(C)CCC[C@]4(CO)[C@H]3C[C@H]3OC(=O)[C@@H]1[C@@]32C | inactive |

Consider the record given below.
Kindly provide the recorded test outcome for the following compound: C=CC(=C)CC[C@]1(C)[C@H]2C[C@H](OC(=O)C(C)CC)C=C3[C@H](OC(C)=O)O[C@H](OC(C)=O)[C@@]32[C@H](OC)C[C@@H]1C (stereo partly specified)
active

###

# Experimental Details: Primary qHTS for inhibitors of nuclear receptor binding SET domain protein 2 (NSD2) in an isogenic RCH-ACV NSD2 p.E1099K mutant (9B) (AID 1645876); note: nearly all actives have a fitted effect of over 70% in size
# Measurement Setup: RCH-ACV NSD2 E1099K (9B) viability, CellTiter-Glo, 72 h; series mostly up to 44.9 µM
Results filed as inconclusive are left out. Active and inactive are the calls of the source. The call rests on the fitted dose curve; in most records, active means well fitted inhibition curve with a large enough effect; inconclusive means small, poorly fitted or top-dose-only effect; inactive means flat fitted curve, though single readings scatter.
Give one outcome, nothing more. List: active, inactive

# count of solved cases: 4
| Molecule | Class Label |
| --- | --- |
| CC[C@H]1OC(=O)[C@H](C)[C@@H](O[C@H]2C[C@@](C)(OC)[C@@H](O)[C@H](C)O2)[C@H](C)[C@@H](O[C@@H]2O[C@H](C)C[C@H](N(C)C)[C@H]2O)[C@](C)(O)C[C@@H](C)/C(=N/OCOCCOC)[C@H](C)[C@@H](O)[C@]1(C)O | inactive |
| NC(=O)c1sc(-c2ccsc2)cc1N | inactive |
| CCOc1ccc(/C=C2\SC(=O)N(CCN)C2=O)cc1 | inactive |
| CCCCC(=O)N(Cc1ccc(-c2ccccc2-c2nn[nH]n2)cc1)C(C(=O)O)C(C)C (stereo unspecified) | inactive |

Kindly provide the recorded test outcome for the following molecule: O=C(Nc1ncc(SCCN2CCCC2)s1)C1(c2ccc(S(=O)(=O)C3CC3)cc2)CC1C1CCCCC1 (stereo unspecified)
active

What about CSC(Cc1ccc(Cl)cc1)C(=O)Nc1ccc(Cl)cc1C(=O)O (stereo unspecified) ?
inactive

What about Oc1cc(CNC(=S)/C=C/c2cc(O)c(O)c(Br)c2)cc(O)c1O ?
active

What about COc1ccc2c(c1)CN(C(=O)CCN1CCC(Cc3ccccc3)CC1)CCS2 ?
active

What about O=C1c2ccccc2-c2c(NCCc3ccccc3)c(=O)[nH]c3cccc1c23 ?
active

What about CCN(CC)CC1CCN(c2ncc3ncnc(Nc4ccc(F)c(Cl)c4)c3n2)CC1 ?
active

What about Cc1cc(-c2nc(C(=O)Nc3cn(C4CCOCC4)nc3C(N)=O)co2)ccn1 ?
active

###

# Experimental Details: Primary qHTS for inhibitors of nuclear receptor binding SET domain protein 2 (NSD2) in an RCH-ACV wild type WT cells (2C) (AID 1645877); note: nearly all actives have a fitted effect of over 70% in size
# Measurement Setup: RCH-ACV (leukaemia line) NSD2 WT (2C) viability, CellTiter-Glo, 72 h; series mostly up to 44.9 µM
Records with an inconclusive call do not appear. Activity calls are given as the source filed them. Calls come from the whole dose curve; as a rule, active = well fitted inhibition curve with a large enough effect; inconclusive = small, poorly fitted or top-dose-only effect; inactive = no such curve, though single readings can be large or run the other way.
Give one outcome, nothing more. List: active, inactive

# count of solved cases: 3
| Compound | Class Label |
| --- | --- |
| Cc1c(-c2ccnc(Nc3cc(Br)cc(C(F)(F)F)c3)n2)sc(=O)n1C | active |
| C[C@@H](O[C@H]1OCCN(Cc2n[nH]nc2CN(C)C)[C@H]1c1ccc(F)cc1)c1cc(C(F)(F)F)cc(C(F)(F)F)c1 | active |
| O=C(c1ccc(F)c(F)c1Nc1ccc(I)cc1F)N1CC(O)(C2CCCCN2)C1 (centres undefined) | active |

Kindly provide the recorded test outcome for the following compound: CC1CCC2(NC1)OC1CC3C4CC=C5CC(O[C@@H]6O[C@H](CO)[C@@H](O[C@@H]7O[C@@H](C)[C@H](O)[C@@H](O)[C@H]7O)[C@H](O)[C@H]6O[C@@H]6O[C@@H](C)[C@H](O)[C@@H](O)[C@H]6O)CCC5(C)C4CCC3(C)C1C2C (some centres undefined)
active

###

# Tested on: Zika virus NS2B-NS3 protease (linked construct)
# Experimental Details: Primary screen NINDS Rhodamine qHTS for Zika virus inhibitors (AID 1347160); note: nearly all actives have a fitted effect of over 55% in size
# Measurement Setup: purified NS2B-NS3 protease, Rhodamine110 substrate fluorescence; series mostly up to 57.1 µM
Results filed as inconclusive are left out. The source made the active and inactive calls. The call rests on the fitted dose curve; in most records, active means well fitted inhibition curve with a large enough effect; inconclusive means small, poorly fitted or top-dose-only effect; inactive means no such curve, though single readings can be large or run the other way. Numbered stars: 1 amine (or outer) side, 2 acyl side, 3 side chain; on linkers, the order of the positions; unused ones are H or OH. Square brackets hold non-standard residues; d marks the D form. Peptide text beside a SMILES is read from it. X1 = CCCCCCCCCC(=O)[C@H](C(=O)[*:2])[C@@H]1CNC(=O)[C@@H](N[*:1])CS1
Give one outcome, nothing more. List: 1 (yes) (active), 0 (no) (inactive)

# count of solved cases: 3
| Compound | Tested Target | Class Label |
| --- | --- | --- |
| O=C(C1=CCN2c3c(cccc31)OC[C@H]2CN1CCOCC1)c1cccc2ccccc12 | Zika virus NS2B-NS3 protease (linked construct) | 0 (no) |
| O=c1cc(-c2ccc(O)c(O[C@@H]3O[C@H](CO)[C@@H](O)[C@H](O)[C@H]3O)c2)oc2cc(O[C@@H]3O[C@H](CO)[C@@H](O)[C@H](O)[C@H]3O)cc(O)c12 | Zika virus NS2B-NS3 protease (linked construct) | 1 (yes) |
| CCCCCCCCCC(=O)[C@@H]1C(=O)N[C@@H](CC(C)C)C(=O)N[C@H](C)C(=O)N2CCC[C@H]2C(=O)N[C@@H](C(C)C)C(=O)N[C@H]2CS[C@H]1CNC2=O (cyclo(L[dA]PV[X1])) | Zika virus NS2B-NS3 protease (linked construct) | 1 (yes) |

Kindly provide the recorded test outcome for the following compound: CC1CCN(C(c2ccc(F)cc2)c2ccc(C(C)C(=O)O)cc2-c2ccc(C(F)(F)F)cc2)CC1 (stereo not drawn)
1 (yes)

What about Cc1ccn(-c2cc(Cl)ccc2[C@@H](Oc2cc(-c3ccc(C[C@H](N)C(=O)O)cc3)nc(N)n2)C(F)(F)F)n1 ?
1 (yes)

What about C=C1[C@@H](C)[C@H]2[C@H](Cc3c[nH]c4ccccc34)NC(=O)[C@]23C(=O)/C=C/C(=O)[C@H](O)/C(C)=C\[C@@H](C)C/C=C/[C@H]3[C@@H]1O ?
0 (no)

What about COCCNCc1ccc(-c2cc3nccc(Oc4ccc(NC(=S)NC(=O)Cc5ccc(F)cc5)cc4F)c3s2)nc1 ?
0 (no)

What about CC(=O)N1CCN([C@H]2CCN(C(=O)N(C)[C@H](C)c3cc(C(F)(F)F)cc(C(F)(F)F)c3)[C@@H](c3ccc(F)cc3C)C2)CC1 ?
0 (no)

What about O=C(Nc1cccc(C(F)(F)F)c1)c1ccccc1NCc1ccncc1 ?
0 (no)

###

# Experimental Details: qHTS for Inhibitors of Plasmodium falciparum (7G8) proliferation (AID 504316); note: nearly all actives have a fitted effect of over 65% in size
# Measurement Setup: P. falciparum 7G8 in erythrocytes, SYBR Green DNA, 72 h; series mostly up to 6.7 µM
Results filed as inconclusive are left out. The source made the active and inactive calls. The call rests on the fitted dose curve; in most records, active means well fitted inhibition curve with a large enough effect; inconclusive means small, poorly fitted or top-dose-only effect; inactive means flat fitted curve, though single readings scatter.
Give one outcome, nothing more. List: active, inactive

# count of solved cases: 6
| Compound | Class Label |
| --- | --- |
| COC(=O)CCCC1=CC2=CC(=O)C(C)(OC(=O)c3cccs3)C(=O)C2=CN1CCc1c[nH]c2ccccc12 (configuration not stated) | inactive |
| CC(C)=CCN1C(=O)[C@@]2(CC(C)=C[C@@H](COCc3ccccc3)O2)c2ccccc21 | active |
| C=C(C)C(O)C=CC=Cc1ccccc1 (configuration not stated) | inactive |
| C#CCCOC(=O)N1C2=NC(C(=O)OC)=C(C(=O)OC)[C@@H]3Nc4ccccc4[C@]23C[C@H]1C(=O)OC | inactive |
| COc1ccc([C@]23Cc4ccccc4[C@H](O2)c2c(c4ccc(OC)cc4oc2=O)O3)cc1 | active |
| C=CCOC(=O)N[C@H](C[N+](=O)[O-])c1ccccc1 | inactive |

Kindly provide the recorded test outcome for the following compound: COC(=O)C1=C(C(=O)OC)[C@@H]2Nc3ccccc3[C@@]23C[C@@H](C(=O)OC)N(C(=O)Nc2ccccc2F)C3=N1
inactive

What about CC(C)OC(=O)CC(NC(=O)OC(C)(C)C)c1ccccc1 (configuration not stated) ?
inactive

What about COC(=O)C1=C(C)N(Cc2ccccc2)C(=NCC2CC2)NC1c1cccc(C(F)(F)F)c1 (configuration not stated) ?
inactive

What about COC(=O)c1cc(C(=O)OC)n2c(C)cc3ccccc3c12 ?
inactive

What about CC(C)=CCCC(C)=CCON=C1C[C@@H](O)[C@@H](O)[C@@H]2[C@H]3C(=O)N(c4cccc(Oc5ccccc5)c4)C(=O)[C@@H]3CC[C@H]12 ?
inactive

What about Cc1cc2c(nc1C)CCCN2CC(O)CN1CCCc2nc(-c3ccc(Br)cc3)ccc21 (configuration not stated) ?
inactive
